Biological target: Streptavidin (Streptomyces avidinii) (UniProt P22629)
Sequence (P22629 whole entry, looked up): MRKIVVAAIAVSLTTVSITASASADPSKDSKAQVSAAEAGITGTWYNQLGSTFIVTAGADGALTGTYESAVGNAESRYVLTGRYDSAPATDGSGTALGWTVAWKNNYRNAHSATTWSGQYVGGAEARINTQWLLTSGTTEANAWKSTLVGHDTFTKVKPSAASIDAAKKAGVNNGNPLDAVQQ
Experiment: streptavidin binders on small-molecule microarray, primary screen, artefact control for SMM compound annotation, biophysical, 635/667 nm fluorescence (AID 1147);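 note: signal reflects streptavidin binding to arrayed compounds as a control protein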
Details: streptavidin binding, higher = more signal
endpoint: composite z-score
Response field accepts a number only; no unit should be typed.

# return composite z-score of "Cc1ccc2[nH]c3nc(CCCn4ccnc4-c4ccccc4)nnc3c2c1" (system: Streptavidin (Streptomyces avidinii) (UniProt P22629)) 0.857

# return composite z-score of "O=C(NN=C1C[C@@H](O)[C@@H](O)[C@@H]2[C@@H]3C(=O)N(Cc4ccccc4)C(=O)[C@@H]3CC[C@H]12)OCc1ccccc1" (system: Streptavidin (Streptomyces avidinii) (UniProt P22629)) -0.0198

# return composite z-score of COC(=O)CC=C[C@@H](C)[C@@H](C=NOC(C)CN1CCCc2nc(C)c(C)cc21)NS(=O)(=O)c1ccc(C)cc1 (stereo not given in full) (system: Streptavidin (Streptomyces avidinii) (UniProt P22629)) -0.176

# return composite z-score of "COc1cccc([C@H]2Oc3ccc(OC)cc3C(=NO[C@@H](C)c3cc(-c4c(C)cc(C)cc4C)no3)[C@@H]2O)c1" (system: Streptavidin (Streptomyces avidinii) (UniProt P22629)) -0.756

# return composite z-score of "O=C1[C@H]2[C@H]3[C@H](O)[C@H](O)CC(=NO[C@@H]4O[C@H](CO)[C@@H](O)[C@H](O)[C@H]4O)[C@H]3CC[C@H]2C(=O)N1c1ccc(F)cc1F" (system: Streptavidin (Streptomyces avidinii) (UniProt P22629)) -0.695
